What CLint scaled at 2 μM was measured for each of the following?
# Assay Comment: Liver microsomes stability, rat
# Measurement Conditions: rat, microsomes
State just the number; it will be interpreted in mL/min/kg.

Enquiry: Read the entry CN(C)CCc1c[nH]c2cccc(O)c12 [Psilocin, 4-hydroxy-N,N-dimethyltryptamine, reference compound] and write its reported CLint scaled at 2 μM.
Return: 27.9

Enquiry: Read the entry [2H]C1([2H])CC(c2c[nH]c3cccc(OCc4ccccc4)c23)C([2H])([2H])N1C (single isomer, unassigned) and write its reported CLint scaled at 2 μM.
Return: 49.7

Enquiry: Read the entry [2H]C([2H])N1CCC(c2c[nH]c3cccc(OCc4ccccc4)c23)C1 (single isomer, unassigned) and write its reported CLint scaled at 2 μM.
Return: 85.7

---

# Assay Comment: Liver microsomes stability, rat
# Measurement Conditions: rat, microsomes
What log10 half-life at 2 μM was measured for each of the following?
Hey, these are logged values: log10 of half-life at 2 μM, min being the unit before logging.

Enquiry: Read the entry [2H]C([2H])N1CCC(c2c[nH]c3cccc(OCc4ccccc4)c23)C1 (single isomer, unassigned) and write its reported log10 half-life at 2 μM.
Return: 1.46

Enquiry: Read the entry [2H]C1([2H])CC(c2c[nH]c3cccc(OCc4ccccc4)c23)C([2H])([2H])N1C (single isomer, unassigned) and write its reported log10 half-life at 2 μM.
Return: 1.70

Enquiry: Read the entry [2H]C1([2H])CC(c2c[nH]c3cccc(OCc4ccccc4)c23)C([2H])([2H])N1 (stereo not drawn) and write its reported log10 half-life at 2 μM.
Return: 1.97

Enquiry: Read the entry [2H]C1([2H])CC(c2c[nH]c3cccc(O)c23)C([2H])([2H])N1 (stereo not drawn) and write its reported log10 half-life at 2 μM.
Return: 2.08

Enquiry: Read the entry [2H]C1([2H])CC(c2c[nH]c3cccc(O)c23)C([2H])([2H])N1C (stereo not drawn) and write its reported log10 half-life at 2 μM.
Return: 1.79

Enquiry: Read the entry [2H]C([2H])N1CCC(c2c[nH]c3cccc(O)c23)C1 (stereo not drawn) and write its reported log10 half-life at 2 μM.
Return: 3.40

---

Form: system (human 5-HT2A receptor (Homo sapiens (Human))), quantity (IC50), values below.

Enquiry: Read the entry [2H]C([2H])N1CCC(c2c[nH]c3cccc(OCc4ccccc4)c23)C1 (single isomer, unassigned) [Compound I-36] and write its reported IC50.
Return: > 10 µM

Enquiry: Read the entry [2H]C([2H])N1CCC(c2c[nH]c3cccc(O)c23)C1 (stereo not shown) [Compound I-32] and write its reported IC50.
Return: 1 to 10 µM

Enquiry: Read the entry [2H]C1([2H])CC(c2c[nH]c3cccc(O)c23)C([2H])([2H])N1C (stereo not shown) [Compound I-34] and write its reported IC50.
Return: 1 to 10 µM

Enquiry: Read the entry [2H]C1([2H])CC(c2c[nH]c3cccc(OCc4ccccc4)c23)C([2H])([2H])N1 (stereo not shown) [Compound I-35] and write its reported IC50.
Return: < 1 µM

Enquiry: Read the entry [2H]C([2H])N1C([2H])([2H])CC(c2c[nH]c3cccc(F)c23)C1([2H])[2H] (stereo not shown) [Compound I-41] and write its reported IC50.
Return: 1 to 10 µM

Enquiry: Read the entry [2H]C1([2H])CC(c2c[nH]c3cccc(OCc4ccccc4)c23)C([2H])([2H])N1C (single isomer, unassigned) [Compound I-37] and write its reported IC50.
Return: < 1 µM

Enquiry: Read the entry [2H]C1([2H])CC(c2c[nH]c3cccc(O)c23)C([2H])([2H])N1 (stereo not shown) [Compound I-33] and write its reported IC50.
Return: < 1 µM
